Provide the recorded IC50 for the entries that follow.
measurementTarget: full length human TREX1 (Homo sapiens, UniProt Q9NSU2)
Construct: N-terminally His-Tev tagged full length human TREX1; made in house; host or cells: E. coli
Sequence (Q9NSU2 1-314): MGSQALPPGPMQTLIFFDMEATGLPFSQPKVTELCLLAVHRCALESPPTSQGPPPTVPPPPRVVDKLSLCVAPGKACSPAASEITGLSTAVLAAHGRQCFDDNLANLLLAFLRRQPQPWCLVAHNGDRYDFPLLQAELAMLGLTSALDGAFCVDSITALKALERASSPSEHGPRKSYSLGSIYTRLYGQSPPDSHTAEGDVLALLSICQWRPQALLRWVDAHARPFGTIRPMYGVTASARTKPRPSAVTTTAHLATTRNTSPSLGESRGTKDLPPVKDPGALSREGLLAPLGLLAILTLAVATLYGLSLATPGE
measurementProtocol: hTREX1 Biochemical Assay (fluorescence, dsDNA substrate degradation)
conditionSummary: biochemical, read-out: hTREX1 IC50

Lookup result for CC(c1nc(C(=O)Nc2cnoc2)c(O)c(=O)n1C)C(c1cnccn1)c1ccccc1C#N (single isomer, unassigned) [Example 66 D2E2] ; measured IC50: > 0.01 µM

Lookup result for CC(c1nc(C(=O)Nc2cnoc2)c(O)c(=O)n1C)C(c1cnn(C(F)(F)F)c1)c1ccccc1C#N (single isomer, unassigned) [Example 151 D2E1] ; measured IC50: 0.001 to 0.01 µM

Lookup result for CC(c1nc(C(=O)Nc2cnoc2)c(O)c(=O)n1C)C(c1cnn(C)c1)c1cc(F)ccc1Cl (single isomer, unassigned) [Example 61 D1E2] ; measured IC50: > 0.01 µM

Lookup result for CC(c1nc(C(=O)Nc2cnoc2)c(O)c(=O)n1C)C(c1ccccc1C#N)c1ccnn1C (single isomer, unassigned) [Example 1 D2E2] ; measured IC50: > 0.01 µM

Lookup result for CC(c1nc(C(=O)Nc2cnoc2)c(O)c(=O)n1C)C(c1ccccc1)c1cccnc1C#N (single isomer, unassigned) [Example 155 D2E1] ; measured IC50: < 0.001 µM

Lookup result for Cc1nn(C)cc1C(c1cc(F)ccc1Cl)C(C)c1nc(C(=O)Nc2cnoc2)c(O)c(=O)n1C (single isomer, unassigned) [Example 62 D1E2] ; measured IC50: > 0.01 µM

====

Provide the recorded pIC50 for the entries that follow.
measurementTarget: full length mouse TREX1 (Mus musculus, UniProt Q91XB0)
Construct: N-terminally His-Tev tagged full length mouse TREX1; made in house; host or cells: E. coli
measurementProtocol: mTREX1 Biochemical Assay (fluorescence, dsDNA substrate degradation)
conditionSummary: biochemical, read-out: mTREX1 IC50
pIC50: −log10 of the molar value.

Bench note, full length mouse TREX1 (Mus musculus, UniProt Q91XB0): entry CC(c1nc(C(=O)Nc2cnoc2)c(O)c(=O)n1C)C(c1cnn(C)c1)c1cc(F)ccc1Cl (single isomer, unassigned) [Example 61 D2E2] , its pIC50 = < 8.00

Bench note, full length mouse TREX1 (Mus musculus, UniProt Q91XB0): entry CC(c1nc(C(=O)Nc2cnoc2)c(O)c(=O)n1C)C(c1ccccc1C#N)c1cn(C)nc1C#N (single isomer, unassigned) [Example 10 D1E1] , its pIC50 = > 9.00

Bench note, full length mouse TREX1 (Mus musculus, UniProt Q91XB0): entry Cn1cc(C(c2ccccc2C#N)C(c2nc(C(=O)Nc3cnoc3)c(O)c(=O)n2C)C(F)(F)F)cn1 (single isomer, unassigned) [Example 40 D2E1] , its pIC50 = < 8.00

Bench note, full length mouse TREX1 (Mus musculus, UniProt Q91XB0): entry Cc1nn(C)c(C)c1C(c1cc(F)ccc1C#N)C(C)c1nc(C(=O)Nc2cnoc2)c(O)c(=O)n1C (single isomer, unassigned) [Example 109 D1E2] , its pIC50 = < 8.00

Bench note, full length mouse TREX1 (Mus musculus, UniProt Q91XB0): entry Cc1ncc(C(c2ccccc2Cl)C(C)c2nc(C(=O)Nc3cnoc3)c(O)c(=O)n2C)cn1 (single isomer, unassigned) [Example 44 D1E2] , its pIC50 = 8.00 to 9.00

Bench note, full length mouse TREX1 (Mus musculus, UniProt Q91XB0): entry Cc1nn(C)c(C)c1C(c1cc(F)ccc1Cl)C(C)c1nc(C(=O)Nc2cnoc2)c(O)c(=O)n1C (single isomer, unassigned) [Example 154 D1E2] , its pIC50 = < 8.00

Bench note, full length mouse TREX1 (Mus musculus, UniProt Q91XB0): entry CC(c1nc(C(=O)Nc2cnoc2)c(O)c(=O)n1C)C(c1cnn(C)c1)c1ccc(O)cc1C#N (single isomer, unassigned) [Example 80 D2E2] , its pIC50 = < 8.00

Bench note, full length mouse TREX1 (Mus musculus, UniProt Q91XB0): entry CC(c1nc(C(=O)Nc2cnoc2)c(O)c(=O)n1C)C(c1cnn(CCN(C)C)c1)c1ccccc1C#N (single isomer, unassigned) [Example 33 D2E2] , its pIC50 = < 8.00

Bench note, full length mouse TREX1 (Mus musculus, UniProt Q91XB0): entry Cc1nn(C)cc1C(c1ccccc1C#N)C(C)c1nc(C(=O)Nc2cnoc2)c(O)c(=O)n1C (single isomer, unassigned) [Example 3 D1E2] , its pIC50 = < 8.00

Bench note, full length mouse TREX1 (Mus musculus, UniProt Q91XB0): entry CC(c1nc(C(=O)Nc2cnoc2)c(O)c(=O)n1C)C(c1cnn(CCN(C)C)c1)c1ccccc1C#N (single isomer, unassigned) [Example 33 D1E1] , its pIC50 = 8.00 to 9.00

Bench note, full length mouse TREX1 (Mus musculus, UniProt Q91XB0): entry Cc1c(C(c2ccccc2C#N)C(C)c2nc(C(=O)Nc3cnoc3)c(O)c(=O)n2C)cnn1C (single isomer, unassigned) [Example 4 D1E1] , its pIC50 = 8.00 to 9.00

Bench note, full length mouse TREX1 (Mus musculus, UniProt Q91XB0): entry COCCn1ncc(C(c2cc(F)ccc2C#N)C(C)c2nc(C(=O)Nc3cnoc3)c(O)c(=O)n2C)c1C (single isomer, unassigned) [Example 104 D2E2] , its pIC50 = < 8.00

====

Provide the recorded IC50 for the entries that follow.
measurementTarget: full length mouse TREX1 (Mus musculus)
Construct: N-terminally His-Tev tagged full length mouse TREX1; made in house; host or cells: E. coli
Sequence (Q91XB0 1-314): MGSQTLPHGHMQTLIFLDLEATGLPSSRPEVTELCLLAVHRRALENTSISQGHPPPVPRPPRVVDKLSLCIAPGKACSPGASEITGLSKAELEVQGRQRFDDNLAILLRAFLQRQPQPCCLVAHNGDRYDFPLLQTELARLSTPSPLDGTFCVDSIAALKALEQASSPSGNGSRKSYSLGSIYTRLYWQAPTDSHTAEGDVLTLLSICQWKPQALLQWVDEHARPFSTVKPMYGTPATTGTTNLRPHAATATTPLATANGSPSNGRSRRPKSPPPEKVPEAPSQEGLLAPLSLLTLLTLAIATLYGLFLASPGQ
measurementProtocol: mTREX1 Biochemical Assay (fluorescence, dsDNA substrate degradation)
conditionSummary: biochemical, read-out: mTREX1 IC50

Lookup result for Cc1cnc(C(c2cc(F)ccc2C#N)C(C)c2nc(C(=O)Nc3cnoc3)c(O)c(=O)n2C)cn1 (single isomer, unassigned) [Example 115 D2E1] ; measured IC50: > 10 nM

Lookup result for Cc1cnc(C)c(C(c2ccccc2C#N)C(C)c2nc(C(=O)Nc3cnoc3)c(O)c(=O)n2C)n1 (single isomer, unassigned) [Example 82 D1E1] ; measured IC50: 1 to 10 nM

Lookup result for CC(c1nc(C(=O)Nc2cnoc2)c(O)c(=O)n1C)C(c1cnn(C)c1)c1cc(F)ccc1Cl (single isomer, unassigned) [Example 61 D1E2] ; measured IC50: > 10 nM

====

Provide the recorded Kd for the entries that follow.
Return type: number; implicit unit pM.

Bench note, full length human TREX1 (Homo sapiens, UniProt Q9NSU2): entry CCn1cc(C(c2ccccc2C#N)C(C)c2nc(C(=O)Nc3cnoc3)c(O)c(=O)n2C)cn1 (single isomer, unassigned) [Example 13 D1E1] , its Kd = 209

Bench note, full length human TREX1 (Homo sapiens, UniProt Q9NSU2): entry CC(c1nc(C(=O)Nc2cnoc2)c(O)c(=O)n1C)C(c1cnn(CC2CC2)c1)c1ccccc1C#N (single isomer, unassigned) [Example 23 D1E2] , its Kd = 529

Bench note, full length human TREX1 (Homo sapiens, UniProt Q9NSU2): entry CC(c1nc(C(=O)Nc2cnoc2)c(O)c(=O)n1C)C(c1cnn(C)c1)c1ccccc1Cl (single isomer, unassigned) [Example 77 D1E1] , its Kd = 338

Bench note, full length human TREX1 (Homo sapiens, UniProt Q9NSU2): entry CC(c1nc(C(=O)Nc2cnoc2)c(O)c(=O)n1C)C(c1cnn(C(F)F)c1)c1ccccc1C#N (single isomer, unassigned) [Example 38 D1E1] , its Kd = 351

Bench note, full length human TREX1 (Homo sapiens, UniProt Q9NSU2): entry CC(c1nc(C(=O)Nc2cnoc2)c(O)c(=O)n1C)C(c1cnn(C)c1)c1cc(Cl)ccc1C#N (single isomer, unassigned) [Example 26 D1E2] , its Kd = 405

Bench note, full length human TREX1 (Homo sapiens, UniProt Q9NSU2): entry CC(c1nc(C(=O)Nc2cnoc2)c(O)c(=O)n1C)C(c1cnn(C)c1)c1cc(F)ccc1C#N (single isomer, unassigned) [Example 14 D1E2] , its Kd = 245
